- assay_summary: Bioavailability after a single oral tablet in beagle dogs (plasma LC/MS/MS, non-compartmental PK)
- Assay type: in vivo
- assay_setup: dog, male beagle dogs, fasted, pentagastrin pre-treated, single 25 mg strength tablet (dry granulation, 30% active)
- Excerpt: The bioavailability of sodium (2R,5S,13aR)-7,9-dioxo-10-((2,4,6-trifluorobenzyl)carbamoyl)-2,3,4,5,7,9,13,13a-octahydro-2,5-methanopyrido[1′,2′:4,5]pyrazino[2,1-b][1,3]oxazepin-8-olate (Formula II) Form I was compared to the bioavailability of (2R,5S,13aR)-8-hydroxy-7,9-dioxo-N-(2,4,6-trifluorobenzyl)-2,3,4,5,7,9,13,13a-octahydro-2,5-methanopyrido[1′,2′:4,5]pyrazino[2,1-b][1,3]oxazepine-10-carboxamide (Formula I) Form III. Each dosing group consisted of 6 male, non-naïve purebred beagle dogs. […]
property_label: Cmax
Please don't drop the unit; write it after the number.

molecule	Cmax
O=C(NCc1c(F)cc(F)cc1F)c1cn2c(c(O)c1=O)C(=O)N1[C@H]3CC[C@H](C3)O[C@@H]1C2 [Formula I Form III]	6 µM

Now, please, on to the next molecule.
# query: Cmax of entry O=C(NCc1c(F)cc(F)cc1F)c1cn2c(c([O-])c1=O)C(=O)N1[C@H]3CC[C@H](C3)O[C@@H]1C2.[Na+] [Formula II Form I] 13 µM
